Hello, the source for this data is patent US8906904B2, in case you need it.

experiment: Assessment of solubility (McIlvaine buffers, 24 h shake, UPLC-UV); type: physicochemical; conditions: pH 4.5, aqueous buffer, kinetic from dmso stock
Classify by measured solubility at 24 h: T if it is equal to or exceeds 70 µg/mL, F if it is smaller.

>  <Compound>
COc1c(C(=O)O)cnn1-c1cccc(-c2cccc(C)c2OCc2ccc3c(c2C)CCN(C2CCOCC2)C3=O)n1

>  <Qualitative label>
F

$$$$
>  <Compound>
Cc1cccc(-c2cccc(-n3ncc(C(=O)O)c3OCC(C)C)n2)c1OCc1ccc2c(c1C)CCN(C1CCOCC1)C2

>  <Qualitative label>
T

$$$$
>  <Compound>
COc1c(C(=O)O)cnn1-c1cccc(-c2cccc(C)c2OCc2ccc3c(c2)CCN(C2CCC(F)(F)CC2)C3)n1

>  <Qualitative label>
T

$$$$

[in] Textbook exercise: given the entry CCOc1c(C(=O)O)cnn1-c1cccc(-c2cccc(C)c2OCc2ccc3c(c2)CCN(C2CCOCC2C)C3)n1 (centres unmarked) , state whether its solubility at 24 h is greater than or equal to 70 µg/mL.
[out] F

[in] Textbook exercise: given the entry CCOc1c(C(=O)O)cnn1-c1cccc(-c2cccc(C)c2OCc2cc(C)c3c(c2)CN(C2CCOCC2)C3)n1 , state whether its solubility at 24 h is greater than or equal to 70 µg/mL.
[out] T

[in] Textbook exercise: given the entry Cc1cccc(-c2cccc(-n3ncc(C(=O)O)c3OC(C)C)n2)c1OCc1ccc2c(c1)CCN(C1CCCOC1)C2 (centres unmarked) , state whether its solubility at 24 h is greater than or equal to 70 µg/mL.
[out] T

---

assay: Assessment of solubility (McIlvaine buffers, 24 h shake, UPLC-UV); format: physicochemical; conditions: pH 4.5, aqueous buffer, kinetic from dmso stock
Classify by measured solubility at 24 h: MET if it is equal to or exceeds 80 µg/mL, NOT MET if it is smaller.

[in] Textbook exercise: given the entry COc1c(C(=O)O)cnn1-c1cccc(-c2cc(C)cc(C)c2OCc2ccc3c(c2)CCN(C2CCOCC2)C3)n1 [Compound 181] , state whether its solubility at 24 h is greater than or equal to 80 µg/mL.
[out] MET

[in] Textbook exercise: given the entry CCOc1c(C(=O)O)cnn1-c1cccc(-c2cccc(C)c2OCc2cc(C)c3c(c2)CCN(C2CCOCC2)C3)n1 [Compound 169] , state whether its solubility at 24 h is greater than or equal to 80 µg/mL.
[out] MET

[in] Textbook exercise: given the entry CCOc1c(C(=O)O)cnn1-c1cccc(-c2cccc(C)c2OCc2ccc3c(c2)CCN(CC2CCOCC2)C3)n1 [Compound 69] , state whether its solubility at 24 h is greater than or equal to 80 µg/mL.
[out] NOT MET

[in] Textbook exercise: given the entry CCOc1c(C(=O)O)cnn1-c1cccc(-c2cccc(C)c2OCc2ccc3c(c2)CCN(CC2CC(F)(F)C2)C3)n1 [Compound 96] , state whether its solubility at 24 h is greater than or equal to 80 µg/mL.
[out] NOT MET

[in] Textbook exercise: given the entry COc1c(C(=O)O)cnn1-c1cccc(-c2cccc(C)c2OCc2cc(C)c3c(c2)CCN(C2CCOCC2)C3)n1 [Compound 171] , state whether its solubility at 24 h is greater than or equal to 80 µg/mL.
[out] MET
